molecular target: WDR5 (Homo sapiens (Human)); assay: Surface Plasmon Resonance (SPR) assay, KD and residence time; type: binding; conditions: surface plasmon resonance (SPR) assay; read-out: WDR5 binding affinity (KD)
Measured Metric: Kd (nM)

* C[C@@H]1CN(c2cc(F)c(C3=CCCN(C(=O)N4CCCC4)C3)cc2NC(=O)c2c[nH]c(=O)cc2C(F)(F)F)C[C@H](C)N1C [Example 374] | 1.15
* C[C@@H]1CN(c2cc(F)c(C3=CCN(Cc4ccc(N5CCN(C)CC5)cc4)CC3)cc2NC(=O)c2c[nH]c(=O)cc2C(F)(F)F)C[C@H](C)N1C [Example 166] | 0.23
* C[C@@H]1CN(c2cc(F)c(-c3ccc(N4CCCC4)cc3)cc2NC(=O)c2cn(C)c(=O)cc2C(F)(F)F)C[C@H](C)N1C [Example 227] | 9.14
* C[C@@H]1CN(c2cc(F)c(N3CCN(Cc4ccc(F)cc4)CC3)cc2NC(=O)c2c[nH]c(=O)cc2C(F)(F)F)C[C@H](C)N1C [Example 392] | 8.08
* CC(C)Oc1ncc(-c2cc(NC(=O)c3c[nH]c(=O)cc3C(F)(F)F)c(N3C[C@@H](C)N(C)[C@@H](C)C3)cc2F)cn1 [Example 130] | 0.656
* C[C@@H]1CN(c2cc(F)c(C3=CCN(C)CC3)cc2NC(=O)c2c[nH]c(=O)cc2C(F)(F)F)C[C@H](C)N1C [Example 267] | 10.7
* C[C@@H]1CN(c2cc(F)c(C3=CCN(c4ncc(F)cn4)CC3)cc2NC(=O)c2c[nH]c(=O)cc2C(F)(F)F)C[C@H](C)N1C [Example 367] | 1.04
* C[C@@H]1CN(c2cc(F)c(-c3cnc(N4C5CCC4CC5)nc3)cc2NC(=O)c2c[nH]c(=O)cc2C(F)(F)F)C[C@H](C)N1C [Example 352] | 2.73
* COCCOc1ccc(-c2cc(NC(=O)c3cn(C)c(=O)cc3C(F)(F)F)c(N3C[C@@H](C)N(C)[C@@H](C)C3)cc2F)cn1 [Example 209] | 9.53
* CC1CN(c2cc(F)c(-c3cnc(N4CCOCC4)nc3)cc2NC(=O)c2cn(C)nc2C(F)(F)F)CCN1C (stereo in doubt) [Example 284] | 8.13
* Cc1cc(-c2cc(NC(=O)c3c[nH]c(=O)cc3C(F)(F)F)c(N3C[C@@H](C)N(C)[C@@H](C)C3)cc2F)cnn1 [Example 149] | 4.65
* C[C@@H]1CN(c2cc(F)c(-c3ccc4c(c3)OCO4)cc2NC(=O)c2c[nH]c(=O)cc2C(F)(F)F)C[C@H](C)N1C [Example 63] | 0.694
* Cc1cc(-c2cc(NC(=O)c3c[nH]c(=O)cc3C(F)(F)F)c(N3C[C@@H](C)N(C)[C@@H](C)C3)cc2F)cnc1C#N [Example 132] | 1.4
